# Test system: Streptococcus pneumoniae clinical isolates representing several serotypes
# protocol-summary: MIC determination, Streptococcus pneumoniae panel of clinical isolates (Table 7)
# Format: cell-based
# condition-label: Streptococcus pneumoniae; S. pneumoniae A66.1x, Drug Susceptible; read-out: MIC A66.1x
Structures can show the parent of a compound that is named as a salt.
property-measured: MIC (µg/mL)
Provide the reading as a plain figure in µg/mL.

# annotated cases, reported MIC shown
# molecule, MIC / µg/mL
measured = [
    ("CN[C@@H]1[C@H](O)[C@H](NC)[C@H]2O[C@]3(O)[C@H](O[C@@H]2[C@H]1O)O[C@H](C)C[C@@]3(O)CNCc1ccc(F)cc1 [compound 2, Trihydrochloride]", 1.6),
    ("CN[C@@H]1[C@H](O)[C@H](NC)[C@H]2O[C@@]3(O)C(=O)C[C@@H](C)O[C@H]3O[C@@H]2[C@H]1O [SPC, reference compound]", 6.3),
    ("CCc1ccc(CNC[C@]2(O)C[C@@H](C)O[C@H]3O[C@@H]4[C@@H](O)[C@H](NC)[C@H](O)[C@H](NC)[C@H]4O[C@]32O)cc1 [compound 3, Trihydrochloride]", 1.6),
    ("CN[C@@H]1[C@H](O)[C@H](NC)[C@H]2O[C@]3(O)[C@H](O[C@@H]2[C@H]1O)O[C@H](C)C[C@@]3(O)CNCCc1ccccc1 [compound 6, Trihydrochloride]", 3.1),
    ("CN[C@@H]1[C@H](O)[C@H](NC)[C@H]2O[C@]3(O)[C@H](O[C@@H]2[C@H]1O)O[C@H](C)C[C@@]3(O)CNCc1ccccc1 [compound 1, Trihydrochloride]", 3.1),
    ("CN[C@@H]1[C@H](O)[C@H](NC)[C@H]2O[C@]3(O)[C@H](O[C@@H]2[C@H]1O)O[C@H](C)CC3(O)CN (stereo partly shown) [mSPC, 3′-aminomethyl-3′-hydroxy spectinomycin, reference compound]", 50),
]

We next turn to a different molecule, shown below.
The reported value for CCOc1ccc(CNC[C@]2(O)C[C@@H](C)O[C@H]3O[C@@H]4[C@@H](O)[C@H](NC)[C@H](O)[C@H](NC)[C@H]4O[C@]32O)cc1 [compound 4, Trihydrochloride] in terms of MIC is 0.8

###

# Test system: Staphylococcus aureus (ATCC 29213)
# protocol-summary: MIC determination, microbroth dilution
# Format: cell-based
# condition-label: ATCC29213; Staphylococcus aureus (ATCC 29213); read-out: MIC S.a.
Each entry below carries its reported MIC.
Provide the reading as a plain figure in µg/mL.

The reported value for CN[C@@H]1[C@H](O)[C@H](NC)[C@H]2O[C@]3(O)[C@H](O[C@@H]2[C@H]1O)O[C@H](C)C[C@@]3(O)CNCCc1cnccn1 [compound 60] in terms of MIC is 200

The reported value for CN[C@@H]1[C@H](O)[C@H](NC)C2O[C@]3(O)C(OC2[C@H]1O)O[C@H](C)C[C@@]3(O)CNCc1ccc(CO)o1 (some centres unmarked) [compound 42] in terms of MIC is 200

###

Each entry below carries its reported MIC.
# System: Burkholderia cepacia (ATCC 25416)
# protocol-summary: MIC determination, microbroth dilution
# Assay type: cell-based
# condition-label: Burkholderia cepacia, ATCC25416, read-out: MIC B.c., Burkholderia cepacia (ATCC 25416)
Where a name gives a salt, the structure may show the parent alone.

# annotated cases, reported MIC shown
# compound, experimental-system, MIC
data = [
    ("CN[C@@H]1[C@H](O)[C@H](NC)C2O[C@]3(O)C(OC2[C@H]1O)O[C@H](C)C[C@@]3(O)CNCc1cccc(O)c1 (stereo partly drawn) [compound 35]", "Burkholderia cepacia (ATCC 25416)", "> 200 µg/mL"),
    ("CN[C@@H]1[C@H](O)[C@H](NC)[C@H]2O[C@]3(O)[C@H](O[C@@H]2[C@H]1O)O[C@H](C)C[C@@]3(O)CNCc1cccs1 [compound 17, Trihydrochloride]", "Burkholderia cepacia (ATCC 25416)", "> 200 µg/mL"),
]

Observed MIC on Burkholderia cepacia (ATCC 25416), entry CN[C@@H]1[C@H](O)[C@H](NC)[C@H]2O[C@]3(O)[C@H](O[C@@H]2[C@H]1O)O[C@H](C)C[C@@]3(O)CNCC(C)c1ccccc1 (stereo partly drawn) [compound 65] , equals ≥ 200 µg/mL
